# Test system: HCV pseudoparticles, genotype 1a HCV E1 and E2 envelope (H77C isolate)
# ASSAY SUMMARY: HCV pseudoparticle infection assay (luciferase reporter, entry into Huh7 cells)
# Format: cell-based
# CONDITION: Hepatitis C virus, Huh-7, 48 h, read-out: EC50 (nM) 1a (H77C), HCV pseudoparticles genotype 1a (H77C), Huh7 cells, luciferase measured 2 days after infection, average of duplicates
Cut-off 1 nM on EC50: below means 1, at or above means 0.

Is EC50 strictly under 1 nM for the entry CC(C)(CNC(=O)C(=O)Nc1ccc(F)cc1)CNC(=O)c1ccc(Nc2cc(NCc3ccc(Cl)cc3)nc(OCC(F)(F)F)n2)nc1 ?
1

Is EC50 strictly under 1 nM for the entry CC(C)(CNC(=O)C(=O)N1CCOCC1)CNC(=O)c1ccc(Nc2cc(NCc3ccc(Cl)cc3)nc(OCC(F)(F)F)n2)nc1 ?
0

Is EC50 strictly under 1 nM for the entry Cc1ccc(NC(=O)C(=O)NCC(C)(C)CNC(=O)c2ccc(Nc3cc(NCc4ccc(Cl)cc4)nc(OCC(F)(F)F)n3)nc2)cc1 ?
1

Is EC50 strictly under 1 nM for the entry CC(C)(CNC(=O)C(N)=O)CNC(=O)c1ccc(Nc2cc(NCc3ccc(Cl)cc3)nc(OCC(F)(F)F)n2)nc1 ?
0

Is EC50 strictly under 1 nM for the entry CC(C)(CNC(=O)C(=O)Nc1nncs1)CNC(=O)c1ccc(Nc2cc(NCc3ccc(Cl)cc3)nc(OCC(F)(F)F)n2)nc1 ?
0

Is EC50 strictly under 1 nM for the entry Cc1cc(NC(=O)C(=O)NCC(C)(C)CNC(=O)c2ccc(Nc3cc(NCc4ccc(Cl)cc4)nc(OCC(F)(F)F)n3)nc2)no1 ?
0
